Molecular target: Follistatin-related protein 3 (Homo sapiens) (UniProt O95633)
Sequence (O95633 whole entry, looked up): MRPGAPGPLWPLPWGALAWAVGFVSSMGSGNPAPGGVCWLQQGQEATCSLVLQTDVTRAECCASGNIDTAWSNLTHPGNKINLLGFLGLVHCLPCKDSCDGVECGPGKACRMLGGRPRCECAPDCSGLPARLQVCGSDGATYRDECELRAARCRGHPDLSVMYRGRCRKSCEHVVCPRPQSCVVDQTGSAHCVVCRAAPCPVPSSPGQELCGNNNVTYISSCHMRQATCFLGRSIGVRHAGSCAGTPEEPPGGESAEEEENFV
Experiment: FSTL3 binders on small-molecule microarrays, primary screen, biochemical, small-molecule microarray, 635 nm fluorescence (AID 1105);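 note: score merges emission near 667 nm and signal to noise per printed spot across three slides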
Conditions: FSTL3 binding, higher = more signal
Kind request: treat 0.7 as inclusive, so composite z-score at 0.7 or higher is criterion met, anything lower is criterion not met.

[ask] Decide: is the reported value of composite z-score for `CC(C)C[C@@H]1NC(=O)[C@@H]2C[C@H](C(=O)NCCCCCCNC(=O)CS)[C@H](c3ccc(O)cc3)N2C1=O` equal to or greater than 0.7?
[reply] criterion met

[ask] Could you please find out whether CC(C)C[C@H]1NC(=O)CNC(=O)[C@@]23C(=O)N[C@@H](Cc4ccccc4)C2[C@H](C)[C@@]2(C)O[C@H]2C3/C=C/C/C=C\CNC1=O (some centres not stated) has composite z-score that meets 0.7 or exceeds it?
[reply] criterion met

[ask] Textbook exercise: given the entry `CC[C@@H](O[Si](C#C[Si](C(C)C)(C(C)C)C(C)C)(C(C)C)C(C)C)c1cn([C@H](C)c2ccccc2)nn1` , state whether its composite z-score is greater than or equal to 0.7.
[reply] criterion not met

[ask] Is the recorded value of composite z-score equal to or greater than 0.7 for this molecule? `O=C(NC1CC1)[C@@H]1c2ccccc2C(=O)N(C2CCCCC2)[C@H]1c1ccc(CO)cc1`
[reply] criterion not met

[ask] // inclusive: composite z-score at least 0.7? input: `C=CCNC(=O)[C@@H]1[C@H]2C(=O)O[C@H](c3ccccc3)[C@H](c3ccccc3)N2[C@H](c2ccc(O)cc2)[C@@]12C(=O)Nc1ccc(C#CC3=CCCCC3)cc12`
[reply] criterion met

[ask] Check if composite z-score >= 0.7 (inclusive). Item: `CC(C)C[C@@H]1NC(=O)[C@@H]2C[C@H](C(=O)NCCCCCNC(=O)CS)[C@H](c3ccc(O)cc3)N2C1=O`
[reply] criterion not met

[ask] Can `CC(C)(C)OC(=O)CC[C@@]1(C(N)=O)N=C(c2ccc(OCCCO)cc2)O[C@@H]1c1ccccc1CN=[N+]=[N-]` be said to have composite z-score at or above 0.7?
[reply] criterion not met

====

Assay: CREB reporter modulators under forskolin, primary screen, cell-based, PC12, CRE-LacZ reporter, forskolin-stimulated (AID 1146);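 note: PC12 cells with 6xCRE LacZ reporter stimulated by forskolin 10 µM; beta-galactosidase reporter signal reflecting CREB driven transcription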
Settings: luminescence, 4.5 h, higher = more signal, called active from +8 up or from −8 down
quantity_kind: z-score
// print number alone

Lab note: `COc1cccc(C)c1NC(=O)O[C@H]1[C@H](OC(=O)Nc2ccccc2)[C@@H](OC(=O)Nc2ccccc2)[C@@H](OC)O[C@@H]1CO` gave z-score of -2.37

Notebook: `C=C(C(=O)CC[C@@H](OC(=O)c1ccccc1-c1ccccc1C(=O)O)c1cccc(OCCO)c1)C(C)C` , z-score read as 2.88

`COCCOC(=O)N1C(=O)[C@@]2(c3cc(C#CCNC(N)=O)ccc31)[C@H](C(=O)Nc1nc3ccccc3s1)[C@H]1C(=O)O[C@H](c3ccccc3)[C@H](c3ccccc3)N1[C@@H]2c1ccc(O)cc1` yielded z-score of -0.227

Value of measured z-score for the entry `CO[C@H]1O[C@H](CO)[C@@H](OC(=O)Nc2cccc(F)c2)[C@H](OC(=O)c2cc3ccccc3[nH]2)[C@H]1OC(=O)c1cc2ccccc2[nH]1` : -0.679

// sample `COCCOC(=O)N1C(=O)[C@@]2(c3ccccc31)[C@H](C(=O)Nc1nc3ccccc3s1)[C@H]1C(=O)O[C@H](c3ccccc3)[C@H](c3ccccc3)N1[C@@H]2c1ccccc1OCCO` , its z-score was -0.144

compound `CCOC(=O)C[C@H]1[C@H](OC(=O)c2cc3ccccc3oc2=O)[C@@H](NC(=O)c2ccc(-c3ccccc3)cc2)c2cc(OCCCO)ccc2N1C(=O)Cc1ccc(OC)cc1` , z-score observed: 0.0179

Measured values drawn from PubChem BioAssay for this set.
